system: SNB-19 CNS; experiment: NCI tumour cell line growth inhibition, 48 h

>  <compound>
CCCCC(C(=O)CCC(=O)Nc1ccc(Cl)c(Cl)c1)C(=O)C(C)C (configuration not stated)

>  <TGI>
> 100 µM

$$$$
>  <compound>
Cc1c(Cl)nc(Cl)nc1Cl

>  <TGI>
9.09 µM

$$$$
>  <compound>
N#Cc1c(N)n2c(nc1=Nc1ccc(Cl)cc1)sc1cc(Cl)ccc12

>  <TGI>
> 100 µM

$$$$
>  <compound>
O=C(O)c1cc2c(cc1CC(Cc1ccc3c(c1)CCCC3)C(=O)O)CCCC2 (configuration not stated)

>  <TGI>
> 100 µM

$$$$
>  <compound>
CN(C)CCNC(=O)c1cccc2c(NC(CS)C(=O)O)c3ccccc3[n+](C)c12 (configuration not stated)

>  <TGI>
> 100 µM

$$$$
>  <compound>
COc1cccc(/C=N/NC(=O)c2ccccc2N2CCCC2)c1O

>  <TGI>
> 100 µM

$$$$
>  <compound>
CCOC(=O)C1(N)CCc2[nH][nH]c(=O)c2C1 (configuration not stated)

>  <TGI>
> 100 µM

$$$$
>  <compound>
COC(=O)c1ccccc1CC(Cc1ccc2c(c1)CCC2)C(=O)OC (configuration not stated)

>  <TGI>
> 100 µM

$$$$
>  <compound>
CCCCNC(=O)C1C(=O)N(CCCC)C(=O)/C1=N\N (configuration not stated)

>  <TGI>
> 100 µM

$$$$
>  <compound>
Cc1nc(-c2nc(-c3ccc(OC(F)(F)F)cc3)no2)nn1Cc1cccc(N2CCC(S(C)(=O)=O)CC2)c1

>  <TGI>
95.4 µM

$$$$
>  <compound>
O=C(O)COc1ccc(C(=O)/C(SS/C(C(=O)c2ccc(OCC(=O)O)c(Cl)c2Cl)=C2\C=C(c3ccc(Cl)cc3)SS2)=C2/C=C(c3ccc(Cl)cc3)SS2)c(Cl)c1Cl

>  <TGI>
> 100 µM

$$$$
>  <compound>
Cc1ccc(C(=O)Cn2c(C(=O)/C=C/c3cccs3)nc3ccccc32)cc1

>  <TGI>
> 100 µM

$$$$

====

test system: UACC-62 melanoma; assay: NCI tumour cell line growth inhibition, 48 h; in the data active = GI50 below about 0.43 µM; inactive = the rest
Outcome codes: active, inactive

>  <compound>
COc1cc2ncnc(Nc3cccc(Cl)c3F)c2cc1OC(=O)N1CCN(C)C[C@H]1C

>  <labelClass>
inactive

$$$$
>  <compound>
C#CCN(Cc1nc2cc(C(F)(F)F)ccc2nc1-c1ccccc1)c1ccc(C)cc1

>  <labelClass>
inactive

$$$$
>  <compound>
N#C[Se]CCN1C(=O)C2C(C1=O)[C@H]1C=C[C@@H]2S1 (stereo partly drawn)

>  <labelClass>
inactive

$$$$
>  <compound>
CC[C@@H](C(=O)[C@H](C)[C@H](O)[C@@H](C)[C@H]1O[C@H]([C@@H](CC)C(=O)N(CC)CC)CC[C@H]1C)C1O[C@]2(C=C[C@@H](O)[C@]3(CC[C@@](C)([C@H]4CC[C@](O)(CC)[C@H](C)O4)O3)O2)[C@H](C)C[C@@H]1C (stereo partly drawn)

>  <labelClass>
inactive

$$$$
>  <compound>
COc1cc2c(cc1Cc1cccc(Cl)c1F)c(=O)c(C(=O)O)cn2[C@@H](CO)C(C)C

>  <labelClass>
inactive

$$$$
>  <compound>
CN1CCC2(CC1)NC(=O)c1c(c3ccc(Cl)c(Cl)c3n1C)C2C#N (stereo not drawn)

>  <labelClass>
inactive

$$$$
>  <compound>
CCCCCCCCCCCCSC1=C(Cl)C(=O)C(OC)=C(OC)C1=O

>  <labelClass>
inactive

$$$$
>  <compound>
COc1cc(C(=O)N2CCN(c3ccccc3)CC2)c2ccccc2n1

>  <labelClass>
active

$$$$
